Source of measurements: ChEMBL document CHEMBL1135126

Tested on: Cryptococcus neoformans
Experiment: Concentration that substantially inhibit the growth of Cryptococcus neoformans
Format: functional
readout.kind: MIC (µM)
Field: numeric (µM). Do not append units.

These solved cases illustrate the format of a correct answer.
CC[C@H](C)[C@H](NC(=O)[C@@H](Cc1ccccc1)NC(=O)[C@@H](Cc1c[nH]c2ccccc12)NC(=O)[C@@H](N)CCCN=C(N)N)C(=O)N[C@H](Cc1ccccc1)C(=O)N[C@@H](Cc1c[nH]cn1)C(=O)N[C@@H](CCCCN)C(=O)N[C@@H](CCCCN)C(=O)N[C@@H](Cc1ccc(O)cc1)C(N)=O; 1.16
CC[C@H](C)[C@H](NC(=O)[C@@H](Cc1ccccc1)NC(=O)[C@@H](Cc1c[nH]c2ccccc12)NC(=O)[C@@H](N)CCCN=C(N)N)C(=O)N[C@H](Cc1ccccc1)C(=O)N[C@@H](Cc1c[nH]cn1)C(=O)N[C@@H](CCCCN)C(=O)N[C@@H](CCCN=C(N)N)C(=O)N[C@@H](CCC(N)=O)C(N)=O; 4.74

Below: the item to evaluate.
Q. Lookup: MIC / Cryptococcus neoformans / CC[C@H](C)[C@H](NC(=O)[C@@H](Cc1ccccc1)NC(=O)[C@@H](Cc1c[nH]c2ccccc12)NC(=O)[C@@H](N)CCCN=C(N)N)C(=O)N[C@H](Cc1ccccc1)C(=O)N[C@@H](Cc1c[nH]cn1)C(=O)N[C@@H](CCCCN)C(=O)N[C@@H](CCCN=C(N)N)C(=O)N[C@@H](CCSC)C(N)=O
A. 2.36

---

Tested on: Cryptococcus neoformans
Assay: Concentration that substantially inhibit the growth of Cryptococcus neoformans
Format: functional
readout.kind: MIC (µM)
Field: numeric (µM). Do not append units.

These solved cases illustrate the format of a correct answer.
CC[C@H](C)[C@H](NC(=O)[C@@H](Cc1ccccc1)NC(=O)[C@@H](Cc1c[nH]c2ccccc12)NC(=O)[C@@H](N)CCCN=C(N)N)C(=O)N[C@H](Cc1ccccc1)C(=O)N[C@@H](Cc1c[nH]cn1)C(=O)N[C@@H](CCCCN)C(=O)N[C@@H](CCCN=C(N)N)C(=O)N[C@@H](Cc1ccc(O)cc1)C(N)=O; 4.62
CC[C@H](C)[C@H](NC(=O)[C@@H](Cc1ccccc1)NC(=O)[C@@H](Cc1c[nH]c2ccccc12)NC(=O)[C@@H](N)CCCN=C(N)N)C(=O)N[C@H](Cc1ccccc1)C(=O)N[C@@H](Cc1c[nH]cn1)C(=O)N[C@@H](CCCCN)C(=O)N[C@@H](CCCN=C(N)N)C(=O)N[C@@H](Cc1c[nH]c2ccccc12)C(N)=O; 4.54
CC[C@H](C)[C@H](NC(=O)[C@@H](Cc1ccccc1)NC(=O)[C@@H](Cc1c[nH]c2ccccc12)NC(=O)[C@@H](N)CCCN=C(N)N)C(=O)N[C@H](Cc1ccccc1)C(=O)N[C@@H](Cc1c[nH]cn1)C(=O)N[C@@H](CCCCN)C(=O)N[C@@H](CCCN=C(N)N)C(=O)N[C@@H](CO)C(N)=O; 4.89

Below: the item to evaluate.
Q. Consider the molecule shown here: CC[C@H](C)[C@H](NC(=O)[C@@H](Cc1ccccc1)NC(=O)[C@@H](Cc1c[nH]c2ccccc12)NC(=O)[C@@H](N)CCCN=C(N)N)C(=O)N[C@H](Cc1ccccc1)C(=O)N[C@@H](Cc1c[nH]cn1)C(=O)N[C@@H](CCCCN)C(=O)N[C@@H](CCCCN)C(=O)N[C@@H](CCC(=O)O)C(N)=O What is its recorded MIC?
A. 2.37
